Each item that follows carries a reported pIC50.
# ASSAYED TARGET: hCRTH2 receptor (Homo sapiens, UniProt Q9Y5Y4)
# Sequence (Q9Y5Y4 whole entry): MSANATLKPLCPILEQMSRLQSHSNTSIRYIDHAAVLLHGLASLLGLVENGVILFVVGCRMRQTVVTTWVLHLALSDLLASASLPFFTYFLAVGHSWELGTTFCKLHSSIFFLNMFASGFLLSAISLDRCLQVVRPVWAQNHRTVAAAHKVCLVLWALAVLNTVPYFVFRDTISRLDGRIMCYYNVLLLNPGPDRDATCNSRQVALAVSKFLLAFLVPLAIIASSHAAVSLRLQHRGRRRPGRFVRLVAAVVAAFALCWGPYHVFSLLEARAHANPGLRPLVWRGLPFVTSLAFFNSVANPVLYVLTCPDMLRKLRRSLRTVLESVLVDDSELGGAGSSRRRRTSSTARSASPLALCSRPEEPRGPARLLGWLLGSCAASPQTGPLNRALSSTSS
# PROTOCOL NOTES: hCRTH2 receptor membranes radioligand binding assay ({3H}-PGD2)
# SETTINGS: {3H}-PGD2 2.5 nM, membranes of HEK 293 cells expressing recombinant hCRTH2 receptor; read-out: hCRTH2 Bdg IC50
pIC50: −log10 of the molar value.

{"COMPOUND": "C[C@@H](Cc1ccccc1)C(=O)N(CCOc1ccccc1)[C@H]1CCc2c(c3cc(F)ccc3n2CC(=O)O)C1", "ASSAYED TARGET": "hCRTH2 receptor (Homo sapiens, UniProt Q9Y5Y4)", "pIC50": 7.68}
{"COMPOUND": "O=C(O)Cn1c2c(c3cc(F)cc(Cl)c31)CC(NC(=O)CCc1ccccc1)CC2 (racemic)", "ASSAYED TARGET": "hCRTH2 receptor (Homo sapiens, UniProt Q9Y5Y4)", "pIC50": 7.24}
{"COMPOUND": "O=C(O)Cn1c2c(c3cc(F)ccc31)C[C@@H](NC(=O)CC(c1ccccc1)c1ccccc1)CC2", "ASSAYED TARGET": "hCRTH2 receptor (Homo sapiens, UniProt Q9Y5Y4)", "pIC50": 8.70}
{"COMPOUND": "Cc1ccc(CCC(=O)N[C@@H]2CCc3c(c4cc(F)ccc4n3CC(=O)O)C2)cc1", "ASSAYED TARGET": "hCRTH2 receptor (Homo sapiens, UniProt Q9Y5Y4)", "pIC50": 7.21}
{"COMPOUND": "O=C(O)Cn1c2c(c3ccccc31)C[C@H](NC(=O)NS(=O)(=O)c1ccccc1)CC2", "ASSAYED TARGET": "hCRTH2 receptor (Homo sapiens, UniProt Q9Y5Y4)", "pIC50": 6.83}
{"COMPOUND": "O=C(O)Cn1c2c(c3cc(F)ccc31)C[C@@H](NC(=O)CCc1ccc3c(c1)OCO3)CC2", "ASSAYED TARGET": "hCRTH2 receptor (Homo sapiens, UniProt Q9Y5Y4)", "pIC50": 7.82}
{"COMPOUND": "O=C(O)Cn1c2c(c3cc(C(F)(F)F)ccc31)CC(NC(=O)OCc1ccccc1)CC2 (racemic)", "ASSAYED TARGET": "hCRTH2 receptor (Homo sapiens, UniProt Q9Y5Y4)", "pIC50": 7.59}
{"COMPOUND": "O=C(O)Cn1c2c(c3cc(F)ccc31)C[C@@H](NC(=O)CCc1ccccc1O)CC2", "ASSAYED TARGET": "hCRTH2 receptor (Homo sapiens, UniProt Q9Y5Y4)", "pIC50": 7.48}
{"COMPOUND": "COc1cccc(NC(=O)CC(Cc2ccccc2)C(=O)N[C@H]2CCc3c(c4cc(F)ccc4n3CC(=O)O)C2)c1 (mixture of isomers)", "ASSAYED TARGET": "hCRTH2 receptor (Homo sapiens, UniProt Q9Y5Y4)", "pIC50": 8.22}
{"COMPOUND": "O=C(O)Cn1c2c(c3ccccc31)C[C@H](NC(=O)c1ccccc1)CC2", "ASSAYED TARGET": "hCRTH2 receptor (Homo sapiens, UniProt Q9Y5Y4)", "pIC50": 6.31}
{"COMPOUND": "CC(=O)N(CCc1ccccc1F)[C@H]1CCc2c(c3cc(F)ccc3n2CC(=O)O)C1", "ASSAYED TARGET": "hCRTH2 receptor (Homo sapiens, UniProt Q9Y5Y4)", "pIC50": 8.40}
{"COMPOUND": "O=C(O)Cn1c2c(c3cc(F)ccc31)C[C@@H](NC(=O)CCc1cc(C(F)(F)F)ccc1C(F)(F)F)CC2", "ASSAYED TARGET": "hCRTH2 receptor (Homo sapiens, UniProt Q9Y5Y4)", "pIC50": 7.82}
{"COMPOUND": "O=C(O)Cn1c2c(c3cc(F)ccc31)C[C@@H](NC(=O)COc1ccc(Cl)cc1)CC2", "ASSAYED TARGET": "hCRTH2 receptor (Homo sapiens, UniProt Q9Y5Y4)", "pIC50": 8.05}
{"COMPOUND": "CSc1ccc(CCC(=O)N[C@H]2CCc3c(c4cc(F)ccc4n3CC(=O)O)C2)cc1", "ASSAYED TARGET": "hCRTH2 receptor (Homo sapiens, UniProt Q9Y5Y4)", "pIC50": 7.85}
{"COMPOUND": "O=C(O)Cn1c2c(c3cc(F)ccc31)C[C@@H](N(CC1CCCCC1)C(=O)NCc1ccccc1)CC2", "ASSAYED TARGET": "hCRTH2 receptor (Homo sapiens, UniProt Q9Y5Y4)", "pIC50": 8.22}
{"COMPOUND": "CN(C(=O)COCc1ccccc1)[C@H]1CCc2c(c3cc(F)ccc3n2CC(=O)O)C1", "ASSAYED TARGET": "hCRTH2 receptor (Homo sapiens, UniProt Q9Y5Y4)", "pIC50": 7.22}
{"COMPOUND": "O=C(O)Cn1c2c(c3cc(F)ccc31)C[C@@H](NC(=O)CCc1cccc(OC(F)(F)F)c1)CC2", "ASSAYED TARGET": "hCRTH2 receptor (Homo sapiens, UniProt Q9Y5Y4)", "pIC50": 7.33}
{"COMPOUND": "O=C(O)Cn1c2c(c3cc(F)ccc31)C[C@@H](NC(=O)CCc1ccc(Cl)cc1Cl)CC2", "ASSAYED TARGET": "hCRTH2 receptor (Homo sapiens, UniProt Q9Y5Y4)", "pIC50": 7.80}
